- System: UACC-62 melanoma
- measurementDescription: NCI-60 one-dose screen, 48 h
- particulars: 10 µM unless noted
Compounds without any hit were thinned out: in the full panel of roughly 83,000, 20% have a hit. Calls of active or inactive are those of the source. How the source made its calls: active means growth percent below 10; inactive means the rest.
Outcome codes: YES = active, NO = inactive

compound: COc1cc(/C=C\c2cc(OC)c(OC)c(OC)c2)cc(NS(=O)(=O)c2cccc(Cl)c2)c1OC
classAssignment: NO

compound: C/C(=C\c1ccn(-c2ccccc2N)n1)[C@@H]1C[C@@H]2O[C@]2(C)CCC[C@H](C)[C@H](O)[C@@H](C)C(=O)C(C)(C)[C@@H](O)CC(=O)O1
classAssignment: NO

compound: CCC1(C(C)C)C(=O)NC(=S)NC1=O
classAssignment: NO

compound: ClCCN(CCCl)c1ccc(-n2cnc3c(Cl)ncnc32)cc1
classAssignment: NO

compound: Cc1c(O)c(CN(CCCl)CCCl)cc(CN(CCCl)CCCl)c1O
classAssignment: NO

compound: CCOP1(=O)CC(C)=C(Cl)C(P(=O)(OCC)OCC)C1 (centres undefined)
classAssignment: NO

compound: COC(=O)[C@@H](C[C@H](Cc1ccccc1)NC(=O)c1csc([C@@H](C[C@H](C(C)C)N(C)C(=O)[C@@H](NC(=O)[C@H]2CCCCN2C)C(C)C)OC(C)=O)n1)NC(=O)OCc1ccccc1
classAssignment: NO

compound: CC(=O)OC1CCC2C3CCC4=C/C(=N/OC(=O)c5ccc(N(CCCl)CCCl)cc5)CCC4(C)C3CC(C)C12 (centres undefined)
classAssignment: NO

compound: O=C1C(N2CC2)=C(N2CC2)C(=O)C(N2CC2)=C1N1CC1
classAssignment: YES

====

- Test system: HS 578T breast
- measurementDescription: NCI-60 one-dose screen, 48 h (100 = growth as untreated, 0 = no growth, -100 = all killed)
- particulars: 10 µM unless noted
The panel holds about 83,000 compounds, 20% with a hit somewhere; the sample as a whole holds those more often. Active and inactive are the calls of the source. How the source made its calls: active means growth percent below 10; inactive means the rest.
measurementType: growth

compound: COC(=O)[C@@H](C)C[C@H](Cc1ccccc1)NC(=O)c1cccc([C@@H](C[C@H](C(C)C)N(C)C(=O)[C@@H](NC(=O)[C@H]2CCCCN2C)C(C)C)OC(C)=O)n1
system: HS 578T breast
recordedResult: 26.3% (inactive)

compound: CN1CC(=O)N(O)C1(C)c1cccnc1 (stereo not drawn)
system: HS 578T breast
recordedResult: 108% (inactive)

compound: COc1cc2c(cc1OCCCn1c(-c3ccccn3)nc3ccccc31)N=C[C@@H]1CCCN1C2=O
system: HS 578T breast
recordedResult: -2.53% (active)

compound: O=C(NCCN1CC1)C(=O)NCCN1CC1
system: HS 578T breast
recordedResult: 107% (inactive)

compound: CCCCN1CCCC[C@@H]1C(=O)N[C@H](C(=O)N(C)[C@H](CCc1nc(C(=O)N[C@@H](Cc2ccccc2)C[C@H](C)C(=O)OC)cs1)C(C)C)[C@@H](C)CC
system: HS 578T breast
recordedResult: 76% (inactive)

compound: C1CCC2(CC1)OOCNCOO2
system: HS 578T breast
recordedResult: 115% (inactive)

compound: CC[CH2][Sn]([Cl])([Cl])[CH2]CC
system: HS 578T breast
recordedResult: 96.8% (inactive)

compound: COC(=O)[C@@H](C)C[C@H](Cc1ccccc1)NC(=O)c1csc([C@@H](C[C@H](C(C)C)N(C)C(=O)[C@@H](NC(=O)[C@H]2CCCCN2C)c2ccc(F)cc2)OC(C)=O)n1
system: HS 578T breast
recordedResult: 1.1% (active)
